The measurements presented in this section are drawn from patent US11555820B2.

# procedureSummary: Photophysical properties of meta-substituted nanohoops (absorption, emission, extinction coefficient, quantum yield)
# Format: physicochemical
# details: extinction coefficient at the absorbance maximum, dichloromethane
# Method: In the following examples, all glassware was flame dried and cooled under an inert atmosphere of nitrogen unless otherwise noted. […] Developed plates were visualized using UV light at wavelengths of 254 and 365 nm. ^1H NMR spectra were recorded at 500 MHz or 600 MHz on a Bruker Advance-II-HD NMR spectrometer. ^13C NMR spectra were recorded 150 MHz on a Bruker Advance-III-HD NMR spectrometer. […]
recordedMetric: εAmax

These solved cases illustrate the format of a correct answer.
molecule	recordedMetric	recordedValue
O[C@]12C=C[C@](O)(CC1)c1ccc(cc1)-c1ccc(cc1)[C@]1(O)C=C[C@@H](C=C1)c1ccc(cc1)-c1cccc(c1)-c1ccc2cc1 [[7]mCPP]	εAmax	5.1 × 10^4 ± 0.09 M^−1cm^−1
O[C@]12C=C[C@](O)(C=C1)c1ccc(cc1)[C@]1(O)C=C[C@@](O)(C=C1)c1ccc(cc1)-c1cccc(c1)[C@@H]1C=CC2=CC1 [[6]mCPP]	εAmax	5.4 × 10^4 ± 0.3 M^−1cm^−1
c1cc2cc(c1)-c1ccc(cc1)-c1ccc(cc1)-c1ccc(cc1)-c1ccc(cc1)-c1ccc(cc1)-c1ccc(cc1)-c1ccc(cc1)-c1ccc(cc1)-c1ccc-2cc1 [[10]mCPP]	εAmax	7.1 × 10^4 ± 0.2 M^−1cm^−1

# input for lookup
Challenge: Any idea what εAmax was measured for CO[C@]12C=C[C@](O)(C=C1)c1ccc(cc1)-c1cccc(c1)-c1ccc(cc1)[C@]1(O)C=C[C@@](OC)(C=C1)C1C=CC(=CC1)[C@]1(O)C=C[C@@](O)(CC1)[C@H]1C=CC2=CC1 [[8]mCPP] ?
Response given: 6.2 × 10^4 ± 0.9 M^−1cm^−1

* * *

# procedureSummary: Photophysical properties of meta-substituted nanohoops (absorption, emission, extinction coefficient, quantum yield)
# Format: physicochemical
# details: dichloromethane
# Procedure: In the following examples, all glassware was flame dried and cooled under an inert atmosphere of nitrogen unless otherwise noted. […] Developed plates were visualized using UV light at wavelengths of 254 and 365 nm. ^1H NMR spectra were recorded at 500 MHz or 600 MHz on a Bruker Advance-II-HD NMR spectrometer. ^13C NMR spectra were recorded 150 MHz on a Bruker Advance-III-HD NMR spectrometer. […]
recordedMetric: Emission (nm)

compound	Emission [nm]
O[C@]12C=C[C@](O)(C=C1)c1ccc(cc1)[C@]1(O)C=C[C@@](O)(C=C1)c1ccc(cc1)-c1cccc(c1)[C@@H]1C=CC2=CC1 [[6]mCPP]	510
CO[C@]12C=C[C@](O)(C=C1)c1ccc(cc1)-c1cccc(c1)-c1ccc(cc1)[C@]1(O)C=C[C@@](OC)(C=C1)C1C=CC(=CC1)[C@]1(O)C=C[C@@](O)(CC1)[C@H]1C=CC2=CC1 [[8]mCPP]	484
c1cc2cc(c1)-c1ccc(cc1)-c1ccc(cc1)-c1ccc(cc1)-c1ccc(cc1)-c1ccc(cc1)-c1ccc(cc1)-c1ccc(cc1)-c1ccc(cc1)-c1ccc-2cc1 [[10]mCPP]	456
O[C@]12C=C[C@](O)(CC1)c1ccc(cc1)-c1ccc(cc1)[C@]1(O)C=C[C@@H](C=C1)c1ccc(cc1)-c1cccc(c1)-c1ccc2cc1 [[7]mCPP]	491
